- Tested on: L02
- method: Hepatoprotective activity against D-GaIN-induced toxicity in human HL7702 cells assessed as inhibition of cell survival rate at 10 uM relative to control
- Assay type: functional
Would you mind labelling by Activity? At or over 50% is met, under is not met.

C=C(C)[C@@H]1CC[C@]2(C(=O)O[C@@H]3O[C@H](C(=O)OCC)[C@@H](O)[C@H](O)[C@H]3O[C@@H]3OC[C@@H](O)[C@H](O)[C@H]3O)CC[C@]3(C)[C@H](CC[C@@H]4[C@@]5(C)CC[C@H](O)C(C)(C)[C@@H]5CC[C@]43C)[C@@H]12 : not met
C=C(C)[C@@H]1CC[C@]2(C(=O)O)CC[C@]3(C)[C@H](CC[C@@H]4[C@@]5(C)CC[C@H](O[C@@H]6O[C@H](C(=O)OCC)[C@@H](O)[C@H](O)[C@H]6O[C@@H]6OC[C@@H](O)[C@H](O)[C@H]6O)C(C)(C)[C@@H]5CC[C@]43C)[C@@H]12 : not met
CCOC(=O)[C@H]1O[C@@H](O[C@H]2CC[C@]3(C)[C@H]4CC=C5[C@@H]6CC(C)(C)CC[C@]6(C(=O)O[C@@H]6O[C@H](CO)[C@@H](O)[C@H](O)[C@H]6O[C@@H]6O[C@H](COC(C)=O)[C@@H](O)[C@H](O)[C@H]6O)CC[C@@]5(C)[C@]4(C)CC[C@H]3C2(C)C)[C@H](O[C@@H]2O[C@H](CO)[C@@H](O)[C@H](O)[C@H]2O[C@@H]2O[C@@H](C)[C@H](O)[C@@H](O)[C@H]2O)[C@@H](O)[C@@H]1O : met
CCOC(=O)[C@H]1O[C@@H](O[C@H]2CC[C@]3(C)[C@H]4CC=C5[C@@H]6CC(C)(C)CC[C@]6(C(=O)O)CC[C@@]5(C)[C@]4(C)CC[C@H]3C2(C)C)[C@H](O[C@@H]2O[C@H](CO)[C@@H](O)[C@H](O)[C@H]2O[C@@H]2OC[C@@H](O)[C@H](O)[C@H]2O)[C@@H](O)[C@@H]1O : not met
CCCCOC(=O)[C@H]1O[C@@H](O[C@H]2CC[C@]3(C)[C@H]4CC=C5[C@@H]6CC(C)(C)CC[C@]6(C(=O)O[C@@H]6O[C@H](CO)[C@@H](O)[C@H](O)[C@H]6O)CC[C@@]5(C)[C@]4(C)CC[C@H]3C2(C)C)[C@H](O[C@@H]2O[C@H](CO)[C@@H](O)[C@H](O)[C@H]2O)[C@@H](O)[C@@H]1O[C@@H]1OC[C@H](O)[C@H](O)[C@H]1O : not met
CCCCOC(=O)[C@H]1O[C@@H](O[C@H]2CC[C@]3(C)[C@H]4CC=C5[C@@H]6CC(C)(C)CC[C@]6(C(=O)O[C@@H]6O[C@H](CO)[C@@H](O)[C@H](O)[C@H]6O[C@@H]6OC[C@@H](O)[C@H](O)[C@H]6O)CC[C@@]5(C)[C@]4(C)CC[C@H]3C2(C)C)[C@H](O[C@@H]2O[C@H](CO)[C@@H](O)[C@H](O)[C@H]2O[C@@H]2O[C@@H](C)[C@H](O)[C@@H](O)[C@H]2O)[C@@H](O)[C@@H]1O : met

* * *

- Test system: L02
- method: Hepatoprotective activity against D-GaIN-induced cell damage in human HL7702 cells assessed as increase in cell survival at 10 uM relative to control
- Assay type: functional
readoutType: Activity (%)

CC(CC(=O)C[C@@H](C)C1=CC(=O)[C@@]2(C)[C@@H]3C(=O)C[C@H]4C(C)(C)[C@@H](O)CC[C@]4(C)[C@H]3C(=O)C[C@]12C)C(=O)O (stereo partly specified) : 75
C/C(=C/C(=O)CC(C)C(=O)O)[C@H]1CC(=O)[C@@]2(C)C3=C(C(=O)C[C@]12C)[C@@]1(C)CC[C@H](O)C(C)(C)[C@@H]1C[C@@H]3O (stereo partly specified) : 65
CC(CC(=O)C[C@@H](C)[C@H]1C[C@H](O)[C@@]2(C)C3=C(C(=O)C[C@]12C)[C@@]1(C)CC[C@H](O)C(C)(C)[C@@H]1C[C@@H]3O)C(=O)O (stereo partly specified) : 76
C/C(CC(=O)CC(C)C(=O)O)=C1/CC(=O)[C@@]2(C)C3=C(C(=O)C[C@]12C)[C@@]1(C)CC[C@H](O)C(C)(C)[C@@H]1CC3=O (stereo partly specified) : 55
C/C(=C\CCC(C)(O)[C@H]1C[C@H](O)[C@@]2(C)C3=C(C(=O)C[C@]12C)[C@@]1(C)CC[C@H](O)C(C)(C)[C@@H]1C[C@@H]3O)C(=O)O (stereo partly specified) : 43
CC(=O)[C@H]1CC(=O)[C@@]2(C)C3=C(C(=O)C[C@]12C)[C@@]1(C)CCC(=O)C(C)(C)[C@@H]1C[C@@H]3O : 58
